Target: FGFR3 (UniProt P22607)
Sequence (P22607 whole entry, looked up): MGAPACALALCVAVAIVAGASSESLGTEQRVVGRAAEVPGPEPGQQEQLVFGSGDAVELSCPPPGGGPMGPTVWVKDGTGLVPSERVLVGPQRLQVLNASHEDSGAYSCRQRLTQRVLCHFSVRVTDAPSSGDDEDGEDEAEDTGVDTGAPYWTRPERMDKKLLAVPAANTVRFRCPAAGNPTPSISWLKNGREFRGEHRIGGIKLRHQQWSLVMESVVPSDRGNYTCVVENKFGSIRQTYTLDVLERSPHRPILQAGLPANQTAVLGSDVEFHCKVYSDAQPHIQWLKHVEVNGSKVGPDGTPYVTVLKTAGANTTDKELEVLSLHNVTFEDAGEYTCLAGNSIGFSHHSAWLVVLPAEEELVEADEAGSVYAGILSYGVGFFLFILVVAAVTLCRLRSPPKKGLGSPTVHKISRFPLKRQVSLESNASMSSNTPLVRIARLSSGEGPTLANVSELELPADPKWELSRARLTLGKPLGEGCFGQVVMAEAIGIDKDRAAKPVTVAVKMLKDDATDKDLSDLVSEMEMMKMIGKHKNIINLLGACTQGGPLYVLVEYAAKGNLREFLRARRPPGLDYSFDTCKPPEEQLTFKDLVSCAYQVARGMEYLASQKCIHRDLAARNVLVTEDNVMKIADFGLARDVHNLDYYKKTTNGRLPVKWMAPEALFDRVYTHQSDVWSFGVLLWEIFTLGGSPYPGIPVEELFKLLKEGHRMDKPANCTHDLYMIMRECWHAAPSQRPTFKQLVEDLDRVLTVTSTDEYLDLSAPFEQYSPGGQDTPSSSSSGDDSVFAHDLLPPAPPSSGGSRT
Assay: phosphorylation enrichment, bacterial display (enrichment ratio); higher = better substrate or ligand; peptides without Tyr show the background
# label = bin(measured phosphorylation enrichment), where bins are label 0 = under 0.6, label 1 = from 0.6 up to 0.8, label 2 = 0.8 and over

# example entries with known answers
Kindly identify the class of KKFPDYIQIAR [SGMS2_Y59_M64R_YF] .
label 2

Which class holds TSGVVYKARNK [CDK2_Y19_Y15S] ?
label 0

Class (by measured phosphorylation enrichment) for RTLIRYANLGN [BEST1_Y131]
label 1

New cases:
// return the class label for SNKLFYQLEQE [PDPR_Y110_YF]
label 1

Please classify: AAVNGYVFGGG [ECHS1_Y137_A138V]
label 1

Class label required: DNEAIYDICRC [TUBA4A_Y210_R215C]
label 1

Bin this entry: KNNDGYIDYAE [MCFD2_Y135]
label 1

The entry to classify is TSYQMYDKGLV [IARS2_Y231_F227S] ; which class holds it?
label 0

Field: class (phosphorylation enrichment) — entry: SWSTSYSGFRC [NKAPL_Y91_Y96C_YF]
label 1

Any idea which band ISIFHCAKGQP [MPZ_Y82_Y82C] is in?
label 2

Category lookup for the sequence VLTPKYRGGGG [HBA1_Y141_S139P]
label 0

Record HNVPIYEGYGL [ACTA1_Y168_A172G] — which class?
label 2

Tag the class for QNTVDYFDLFG [PTPN11_Y62_G60V_YF]
label 2

Lab log: TYEPNYGTVKR [RAPGEF6_Y1447_Q1452R] — assign phosphorylation enrichment category
label 0

Class for EQKKFSNAMKK [SCN5A_Y1495_Y1495S_YF] ?
label 1

* * *

Target: c-Src SH2;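 note: peptide library displayed on the E. coli surface as eCPX fusions, selected cells deep-sequenced, score is each peptide's frequency after selection divided by its frequency in the input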
Assay: SH2 binding enrichment of the phosphorylated peptide, bacterial display (enrichment ratio); higher = better substrate or ligand; peptides without Tyr show the background
Please map values of SH2 binding enrichment to classes as shown: low band (below 0.5), middle band (0.5 to below 0.7), high band (0.7 or more)

Solved entries (count: 3):
The entry to classify is VLTSKYHGGGG [HBA1_Y141_R142H] ; which class holds it?
middle band

Tag the class for DFFDLYGGEKF [PTPN11_Y66_YF]
middle band

Bin this entry: AKFPFYEKNKK [FOXL2_Y91]
high band

Further cases:
Dear colleague, I would appreciate it if you could identify the bin for FFNSEYGELSE [FLT4_Y1337_YF] and reply at your convenience.
low band

// return the class label for SVTCTSSPALN [TP53_Y126_Y126S]
low band

Determine which band this sequence sits in: IRTIDYRYTVC [IDS_Y497_W502C]
high band

Which bin should I file DYSLKYPTDIP [APC_Y1183_A1184P] under?
low band

Lab note: sort IKAGAYDFPSP [CAMK2A_Y230] into the matching SH2 binding enrichment band.
high band

Could you tell me which band VTVLDYDKTGK [SYT1_Y365_I368T] belongs to?
low band

Please report the category associated with TDTAAYEERVR [SPTB_Y474] , nothing else.
middle band

Form field 'band' for TSYQMYDKGLV [IARS2_Y231_F227S]
middle band

Lab log: RESFKYLPSSL [CXXC1_Y218_F219L_YF] — assign SH2 binding enrichment category
low band

Band for LERFIYNRQEF [HLA-DPB1_Y59_E62Q_YF] ?
middle band

* * *

Biological target: FGFR3 (UniProt P22607)
Test: phosphorylation enrichment, bacterial display (enrichment ratio); higher = better substrate or ligand; peptides without Tyr show the background
reported-endpoint: phosphorylation enrichment
Could you keep your reply to the number by itself?

Use these answered entries as a reference point.
Please give measured phosphorylation enrichment of the following entry: ANNEYYFRVCA
1.94

Fill in reported phosphorylation enrichment for this entry: YPKAHYHWLVL [APTX_Y214_R213H]
1.94

Report phosphorylation enrichment for QKKPCYEIRWK [PDGFRB_Y562_R561C]
2.08

Supply recorded phosphorylation enrichment for KDQGTYEDYVE [MYL6_Y86] here.
0.721

Consider the sequence SGSIHYSHVPR [GLB1_Y57_R59H] . State its measured phosphorylation enrichment.
0.518

Read the entry LSAPCYLNRIS [HEXA_Y421_W420C] and write its reported phosphorylation enrichment.
0.535

For NWGSPYKSDGC [ZNF347_Y261_N264D] , write its phosphorylation enrichment.
0.522

For FQLENYCNGGG [INS_Y108_YF] , write its phosphorylation enrichment.
0.72

Others:
Please give the documented phosphorylation enrichment of QHNPEYVQQAS [LRRC7_Y1058]
0.65

Please give measured phosphorylation enrichment of the following entry: RGERPYGGGGG [FUS_Y526_R522G]
0.377

Could you please provide reported phosphorylation enrichment for LEAVSYSSPYA [RNLS_Y190_R193P] ? Thanks!
0.987

Answer with reported phosphorylation enrichment of VVIMLYGVDSR [PKD1_Y3143_G3139V]
0.924

Note phosphorylation enrichment for the sequence shown: YDGKDYIALNE [HLA-A_Y147]
0.953

Provide measured phosphorylation enrichment value, entry: VNFGAYINFFK [GLB1_Y488_D491Y_YF]
0.963

Assign phosphorylation enrichment to the following record: SVTCTFSPALN [TP53_Y126_Y126F]
1.03

Please look at this sequence and report its phosphorylation enrichment: SFLFHYADDSF [RAB3C_Y50_R49H]
0.671

Hello, please tell me recorded phosphorylation enrichment for this one: NTADYYDLYGG [PTPN11_Y63_G60A]
15.3

Give phosphorylation enrichment for SYDLDYDSVQP [MYC_Y16_N11S]
0.862

* * *

Target: EPHB1 (UniProt P54762)
Sequence (P54762 whole entry, looked up): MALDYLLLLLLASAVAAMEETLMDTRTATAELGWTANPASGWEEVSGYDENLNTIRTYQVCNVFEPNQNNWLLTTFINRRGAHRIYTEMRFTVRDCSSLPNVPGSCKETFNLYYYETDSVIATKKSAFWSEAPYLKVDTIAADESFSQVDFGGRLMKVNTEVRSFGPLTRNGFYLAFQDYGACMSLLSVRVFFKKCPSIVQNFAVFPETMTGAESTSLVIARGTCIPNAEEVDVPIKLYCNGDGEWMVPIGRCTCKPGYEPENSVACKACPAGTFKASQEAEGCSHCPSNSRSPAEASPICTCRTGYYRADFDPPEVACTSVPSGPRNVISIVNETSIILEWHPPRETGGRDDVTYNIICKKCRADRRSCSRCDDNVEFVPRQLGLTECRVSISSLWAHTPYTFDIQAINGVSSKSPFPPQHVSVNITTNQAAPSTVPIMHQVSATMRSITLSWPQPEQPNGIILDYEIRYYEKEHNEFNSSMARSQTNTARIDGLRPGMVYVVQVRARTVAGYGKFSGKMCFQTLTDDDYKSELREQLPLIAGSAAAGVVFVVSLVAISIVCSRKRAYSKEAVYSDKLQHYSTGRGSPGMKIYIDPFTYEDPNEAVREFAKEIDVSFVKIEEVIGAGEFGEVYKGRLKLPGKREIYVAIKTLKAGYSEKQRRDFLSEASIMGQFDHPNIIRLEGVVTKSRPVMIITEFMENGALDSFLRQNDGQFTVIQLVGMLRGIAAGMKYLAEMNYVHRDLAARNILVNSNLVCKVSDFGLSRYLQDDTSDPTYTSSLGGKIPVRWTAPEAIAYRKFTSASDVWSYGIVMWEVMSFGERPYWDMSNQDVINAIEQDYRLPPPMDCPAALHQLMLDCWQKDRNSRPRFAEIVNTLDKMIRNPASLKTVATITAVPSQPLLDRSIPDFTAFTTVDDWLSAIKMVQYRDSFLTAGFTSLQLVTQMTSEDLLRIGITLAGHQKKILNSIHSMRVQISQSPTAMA
Assay: phosphorylation enrichment, bacterial display (enrichment ratio); higher = better substrate or ligand; peptides without Tyr show the background
Listing of entries alongside the reported phosphorylation enrichment.
Lab note: write the figure by itself, no unit.

Sample records with phosphorylation enrichment:
Tell us which phosphorylation enrichment value is on record for YFCRWYRNQKS [EREG_Y144_R147Q]
0.481

Give phosphorylation enrichment for CTTIHYNFMRN [TP53_Y234_C238R_YF]
0.605

Give the measured phosphorylation enrichment for KELANYYKLHH [AK7_Y390]
4.12

Continuing:
Fill in reported phosphorylation enrichment for this entry: SSVKLYRVYCD [FGB_Y266_P265L]
0.618

Please report the measured phosphorylation enrichment for TIQMMYGCDVG [HLA-A_Y123_I121M]
0.718

* * *

Test system: Fer (mouse)
Assay: phosphorylation enrichment, bacterial display (enrichment ratio); higher = better substrate or ligand; peptides without Tyr show the background
reported-endpoint: phosphorylation enrichment
Enter the number alone.

Name the recorded phosphorylation enrichment of the item QHVPDYRQNGF [PCDHGA1_Y890_V894G_YF] in your answer.
0.503

Tell me phosphorylation enrichment reported for LYSINYLHFGE [KDM4C_Y201]
11.1

Item EIHTQYEAMAS [GFAP_Y242_R239H] : provide phosphorylation enrichment
0.677

Supply reported phosphorylation enrichment belonging to this sequence: DPHKIFEFVNS [IRF3_Y107_Y107F]
0.771

Return value of phosphorylation enrichment for input IGSQRYQLGVR [RB1_Y446_K447Q] , no commentary.
0.403

Quick one: give measured phosphorylation enrichment for MGRVKYGAFIN [GLB1_Y485_N484K_YF]
0.348

* * *

Tested on: c-Src
Assay: phosphorylation enrichment, bacterial display (enrichment ratio); higher = better substrate or ligand; peptides without Tyr show the background
Would you mind labelling by phosphorylation enrichment? At or over 0.7 is y, under is n.

Completed entries (count: 5):
Test whether the sequence RGYRQYAYDGK [HLA-A_Y140_D140Y] records phosphorylation enrichment of 0.7 or higher.
n

Answer whether phosphorylation enrichment of HGEAFYSEVKA [PAK5_Y182_P187A_YF] is greater than or equal to 0.7.
y

Hi, just wondering whether HDHFGYRQSVT [CD55_Y245_R240H_YF] shows phosphorylation enrichment of 0.7 or higher.
y

# check: phosphorylation enrichment of NNPAYYVLEGV [INPPL1_Y987] is greater than or equal to 0.7
y

Does phosphorylation enrichment meet or surpass 0.7 for KLFRVYCDMNT [FGB_Y269_P265L_YF] ?
n

Continuing:
Does the reported phosphorylation enrichment for LDTFIYDAAVL [GRIN2A_Y730_A727T] fall at or above the 0.7 mark?
y

Would you say VEFAKYGSLQG [RET_Y809_R813Q_YF] shows phosphorylation enrichment at minimum 0.7?
n

Record MKNDLYQTPLH [NFKB1_Y582_R578K] ; criterion: phosphorylation enrichment no lower than 0.7. Met?
y

Does phosphorylation enrichment meet or surpass 0.7 for DSSIRYLQEIY [FGG_Y135] ?
y

Hi, just wondering whether PGIRMYQVQYN [LRFN1_Y454] shows phosphorylation enrichment of 0.7 or higher.
y

In plain terms: is recorded phosphorylation enrichment at least 0.7 for GRDVIYKGFED [NFU1_Y194_G190R] ?
y

Assess whether reported phosphorylation enrichment for CTTIHYNFMRN [TP53_Y234_C238R_YF] sits at 0.7 or higher.
n

Reported phosphorylation enrichment at or above 0.7? QNTVDYFDLFG [PTPN11_Y62_G60V_YF]
n
